Test system: HUVEC
ASSAY_PROTOCOL: Antiangiogenic activity in human HUVEC cells assessed as angiogenesis rate at 10 uM after 5 hrs by endothelial tube formation assay relative to control
Type: functional
Active and inactive are the calls of the source. The rule behind the calls is not given here.
Thanks in advance; please answer with one of these: active, inactive

A selection of reference data follows.
[[record]]
molecule = "Cc1cc(C)n2c1C=C(c1ccccc1Br)C2=O"
class_name = "active"

[[record]]
molecule = "Cc1cc(C)n2c1C=C(c1ccc(F)cc1)C2=O"
class_name = "inactive"

[[record]]
molecule = "Cc1ccc(C2=Cc3c(C)cc(C)n3C2=O)cc1"
class_name = "inactive"

[[record]]
molecule = "Cc1cccc(C2=Cc3c(C)cc(C)n3C2=O)c1"
class_name = "inactive"

[[record]]
molecule = "Cc1cc(C)n2c1C=C(c1cccc(F)c1)C2=O"
class_name = "inactive"


Which outcome was assigned to Cc1cc(C)n2c1C=C(c1cccc([N+](=O)[O-])c1)C2=O in this test?
inactive

Which outcome was assigned to Cc1cc(C)n2c1C=C(c1ccc([N+](=O)[O-])cc1)C2=O in this test?
inactive

Which outcome was assigned to Cc1ccccc1C1=Cc2c(C)cc(C)n2C1=O in this test?
active
